Numbers sourced from patent US20020068273A1.

Target: T1, adenine nucleotide translocator (ANT), purified native protein (rat, UniProt Q05962 2-298)
T1 construct: mature; Used detergent-solubilized (SPR), reconstituted in liposomes or planar bilayers, or inside mitochondria (pull-down); also called adenine nucleotide translocase; ADP/ATP carrier
T1 sequence: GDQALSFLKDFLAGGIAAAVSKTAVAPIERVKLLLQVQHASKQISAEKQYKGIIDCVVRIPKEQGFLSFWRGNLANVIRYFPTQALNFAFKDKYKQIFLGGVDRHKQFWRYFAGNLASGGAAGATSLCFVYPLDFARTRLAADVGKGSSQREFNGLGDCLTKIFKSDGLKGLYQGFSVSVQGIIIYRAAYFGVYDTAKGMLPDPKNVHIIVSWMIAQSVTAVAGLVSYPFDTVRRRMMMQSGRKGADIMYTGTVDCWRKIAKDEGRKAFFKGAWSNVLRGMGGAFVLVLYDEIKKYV
Assay: SPR, ANT over immobilized Vpr52-96
Where no end group is shown, it is not given here.
Measure name: pKd
Reminder that pKd is minus the log10 of a molar concentration.

Looking up DTWAGVEAIIRILQQLLFIHFRIGCRHSRIGVTRQRRARNGASRS (also: biotin, position not given here, range 52-96; Synthetic biotinylated peptide, immobilized for SPR and used as bait in the avidin-agarose pull-down; also called biotinylated Vpr52-96; immobilized Vpr C-terminal moiety) [biotin-Vpr52-96] , I found its pKd recorded as 8.01
